- Test Description: Determination of oral bioavailability
- Assay type: in vivo, balb/c mice
- Particulars: balb/c, mouse, plasma, oral, 5 mg/kg, mice, oral route (5 mg/kg PO vs 1 mg/kg IV)
Property: bioavailability

Ask: What measured bioavailability goes with CS(=O)(=O)N1CCC(NC(=O)c2n[nH]cc2NC(=O)c2c(Cl)cccc2Cl)CC1 ?
Reply: 40 to 50%
